Just for reference, patent US20110097326A1 is where these values come from.

# measurement-target: T1, recombinant Fc-TrkB antigen (human) (human, UniProt Q16620 32-430, limits assumed)
# T1 construct: Biotinylated for the ForteBio assays; also called Fc-hTrkB; human Fc-TrkB; not shown: Fc part
# experiment-notes: BLI (ForteBio Octet), biotinylated Fc-TrkB on streptavidin sensors, Fab at 1E-7 M
quantity-kind: kon (M⁻¹ s⁻¹)
Return type: number; implicit unit M⁻¹ s⁻¹.

Answered cases to consult:
- Fab TR135-8 (Fab, V domains shown, Fab with human V-segments, expressed in E. coli; detected with anti-human kappa) VH: QVQLVQSGAEVKKPGASVKVSCKASGYTFTAYDMHWVRQAPGQGLEWMGWIDPNSGGTRYAQKFQGRVTMTRDTSISTAYMELSRLTSDDTAVYYCTGVTTWFAYWGQGTLVTVSS VL: MDVVMTQSPLSLPVTLGQPASISCRSSQSLVHSNGNTYLNWYQQKPGQPPRLLIYKISNRFSGVPDRFSGSGAGTDFTLKISRVEAEDVGVYYCMQGTHEPYTFGQGKLEIK: 136000
- Fab TR144-1 (Fab, V domains shown, Fab with human V-segments, expressed in E. coli) VH: QVQLVQSGAEVKKPGASVKVSCKASGYTFTAYDMHWVRQAPGQGLEWMGWIDPRSGDTSYKQKFQGRVTMTRDTSISTAYMELHRLRSDDTAVYYCTGVTTWFAYWGQGTLVTVSS VL: MDVVMTQSPLSLPVTLGQPASISCRSSQSLVHSNGNTYLNWYQQKPGQPPRLLIYKISNRFSGVPDRFSGSGAGTDFTLKISRVEAEDVGVYYCMQGTHEPYTFGQGKLEIK: 126000
- Fab TR151-1 (Fab, V domains shown, Fab with human V-segments, expressed in E. coli) VH: QVQLVQSGAEVKKPGASVKVSCKASGYTFTAYDMHWVRQAPGQGLEWMGWIDPNSGGTRYAQKFQGRVTMTRDTSISTAYMELSRLTSDDTAVYYCAGVTSWFAYWGQGTLVTVSS VL: MDVVMTQSPLSLPVTLGQPASISCRSSQSLVHSNGNTYLSWLQQRPGQPPRLLIYKISNRFSGVPDRFSGSGAGTDFTLKISRVEAEDVGVYYCMQGTHEPYTFGQGKLEIK: 213000

// switching to the query binder
# get_value(readout='kon', item= Fab TR139-2 (Fab, V domains shown, Fab with human V-segments, expressed in E. coli) VH: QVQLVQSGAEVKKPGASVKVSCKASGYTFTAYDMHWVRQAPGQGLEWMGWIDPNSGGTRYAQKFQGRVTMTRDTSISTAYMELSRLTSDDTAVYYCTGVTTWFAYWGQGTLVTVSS VL: MDVVMTQSPLSLPVTLGQPASISCRSSQSLVHSNGNTYLSWLQQRPGQPPRLLIYKISNRFSGVPDRFSGSGAGTDFTLKISRVEAEDVGVYYCMQGTHEPYTFGQGKLEIK )
211000
